The values you see were collected from paper PMC5540273.

Reported %Inh values are given for each entry in this list.
test system: RIOK3; conditions: concentration: 1 μM,replicates: in singlicate; n = 1;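 also: KINOMEscan kinase panel screen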
Expressed in %, but write only the number.

Cl.Oc1cc(-c2nc(-c3ccccc3)[nH]c2-c2ccncc2)ccc1Cl | 0
CC(C)N1C(=O)Cc2cc(Nc3ncc(C(F)(F)F)c(NCc4cccc(S(C)(=O)=O)c4)n3)ccc21 | 88
O=C(NCCCN1CCOC1=O)c1cnc(NCc2cc(Cl)ccc2Cl)nc1NC1CCCC1 | 6

Now for another entry.
IN: Test system RIOK3; read-out %Inh; what value for CCN(CC)CCOc1ccc(Nc2ncc3cc(-c4c(Cl)cccc4Cl)c(=O)n(C)c3n2)cc1 ?
OUT: 92.3

###

tested on: MST1; construct: gene STK4; settings: concentration: 1 μM,replicates: in singlicate; n = 1
Reported %Inh values are given for each entry in this list.
Expressed in %, but write only the number.

// worked examples, %Inh included
Cc1cc2cn[nH]c2cc1-c1cccc2c(N)c(C(N)=O)nnc12 | 90.2
Cl.Cl.NC[C@H](Cc1ccc(C(F)(F)F)cc1)NC(=O)c1cc(Br)c(-c2ccnc3[nH]ccc23)s1 | 0
C[C@H]1Oc2cc(cnc2N)-c2c(nn(C)c2C#N)CN(C)C(=O)c2ccc(F)cc21 | 19

IN: Quick one: %Inh of O=C(NCCNc1ccnc(NCc2ccc(F)cc2)n1)c1cc2ccccc2s1 ?
OUT: 0

IN: Quick one: %Inh of O=C(NCCCN1CCOC1=O)c1cnc(NCc2cc(Cl)ccc2Cl)nc1NC1CCCC1 ?
OUT: 27

IN: Quick one: %Inh of C=CC(=O)Nc1cc2c(Nc3ccc(F)c(Cl)c3)ncnc2cc1OCCCN1CCOCC1 ?
OUT: 1

IN: Quick one: %Inh of NC(=O)c1cc(-c2ccccc2)cc2c(C3CCNCC3)c[nH]c12 ?
OUT: 43

IN: Quick one: %Inh of CC(C)N1C(=O)Cc2cc(Nc3ncc(C(F)(F)F)c(NCc4cccc(S(C)(=O)=O)c4)n3)ccc21 ?
OUT: 0

###

system: MEK3; construct: gene MAP2K3; details: concentration: 1 μM,replicates: in singlicate; n = 1
Reported %Inh values are given for each entry in this list.
Expressed in %, but write only the number.

// worked examples, %Inh included
CN(C)CCOc1ccc(-c2cc(-c3c[nH]nc3-c3ccccn3)ccn2)cc1 | 11
C=CC(=O)Nc1cc2c(Nc3ccc(F)c(Cl)c3)ncnc2cc1OCCCN1CCOCC1 | 7
Cl.Cl.NC[C@H](Cc1ccc(C(F)(F)F)cc1)NC(=O)c1cc(Br)c(-c2ccnc3[nH]ccc23)s1 | 77
CNC(=O)c1ccccc1Sc1ccc2c(/C=C/c3ccccn3)n[nH]c2c1 | 0
O=C(NCCNc1ccnc(NCc2ccc(F)cc2)n1)c1cc2ccccc2s1 | 0

IN: Quick one: %Inh of C[C@@H](Oc1cc(-c2cnn(C3CCNCC3)c2)cnc1N)c1c(Cl)ccc(F)c1Cl ?
OUT: 18

IN: Quick one: %Inh of Cc1cc2cn[nH]c2cc1-c1cccc2c(N)c(C(N)=O)nnc12 ?
OUT: 58

IN: Quick one: %Inh of NC(=O)c1cc(-c2ccccc2)cc2c(C3CCNCC3)c[nH]c12 ?
OUT: 35

IN: Quick one: %Inh of COc1ccc(C[C@@H](CN)NC(=O)c2cc(Br)c(-c3ccnc4[nH]ccc34)s2)cc1.Cl.Cl ?
OUT: 95.2

IN: Quick one: %Inh of CN(C)CC(O)COc1ccc(Nc2nccc(-c3cnn4nc(N5CCOCC5)ccc34)n2)cc1 (stereo not shown) ?
OUT: 82

###

test system: DAPK1; conditions: concentration: 1 μM,replicates: in singlicate; n = 1
READOUT_TYPE: %Inh (%)
Expressed in %, but write only the number.

// worked examples, %Inh included
C[C@@H]1CCN(C(=O)CC#N)C[C@@H]1N(C)c1ncnc2[nH]ccc12 | 10
Cl.Cl.NC[C@H](CC1CCCCC1)NC(=O)c1cc(Br)c(-c2ccnc3[nH]ccc23)s1 | 71
C=CC(=O)Nc1cc2c(Nc3ccc(F)c(Cl)c3)ncnc2cc1OCCCN1CCOCC1 | 0

Now for another entry.
IN: Quick one: %Inh of Cc1ccc(-n2nc(C(C)(C)C)cc2NC(=O)Nc2ccc(OCCN3CCOCC3)c3ccccc23)cc1 ?
OUT: 4

###

system: IRAK4; conditions: concentration: 1 μM,replicates: in singlicate; n = 1
Reported %Inh values are given for each entry in this list.

// worked examples, %Inh included
Cl.Cl.NC[C@H](Cc1ccc(C(F)(F)F)cc1)NC(=O)c1cc(Br)c(-c2ccnc3[nH]ccc23)s1 [GSK1487252] | 18%
CC(C)Nc1cc(-c2ccc3c(N)n[nH]c3c2)nc(N)n1 [GSK2221681] | 0%
Nc1nc(Nc2ccccc2)cc(-c2ccc3c(N)n[nH]c3c2)n1 [GSK2225749] | 4%
Cc1cc2cn[nH]c2cc1-c1cccc2c(N)c(C(N)=O)nnc12 | 34%
Cc1ccc(-n2nc(C(C)(C)C)cc2NC(=O)Nc2ccc(OCCN3CCOCC3)c3ccccc23)cc1 [GW839464] | 0%

IN: Quick one: %Inh of Cl.Cl.Nc1nc(-c2ccc3c(N)n[nH]c3c2)cc(N2CCCC(NC(=O)c3ccccc3)C2)n1 (centres unmarked) [GSK2286775] ?
OUT: 20%

IN: Quick one: %Inh of Cl.Cl.NC[C@H](CC1CCCCC1)NC(=O)c1cc(Br)c(-c2ccnc3[nH]ccc23)s1 [GSK1581427] ?
OUT: 25%

IN: Quick one: %Inh of C[C@@H]1CCN(C(=O)CC#N)C[C@@H]1N(C)c1ncnc2[nH]ccc12 ?
OUT: 0%

IN: Quick one: %Inh of COc1ccc(C[C@@H](CN)NC(=O)c2cc(Br)c(-c3ccnc4[nH]ccc34)s2)cc1.Cl.Cl [GSK1389063] ?
OUT: 32%

###

Reported %Inh values are given for each entry in this list.
test system: PKN1; conditions: concentration: 1 μM,replicates: in singlicate; n = 1
Expressed in %, but write only the number.

Cc1cc2cn[nH]c2cc1-c1cccc2c(N)c(C(N)=O)nnc12 | 0

Now for another entry.
IN: Test system PKN1; read-out %Inh; what value for C[C@@H](Oc1cc(-c2cnn(C3CCNCC3)c2)cnc1N)c1c(Cl)ccc(F)c1Cl ?
OUT: 2

###

system: WNK1; conditions: concentration: 1 μM,replicates: in singlicate; n = 1
READOUT_TYPE: %Inh (%)
Expressed in %, but write only the number.

IN: Test system WNK1; read-out %Inh; what value for Cl.Cl.NC[C@H](CC1CCCCC1)NC(=O)c1cc(Br)c(-c2ccnc3[nH]ccc23)s1 ?
OUT: 0

IN: Test system WNK1; read-out %Inh; what value for O=C(NCCCN1CCOC1=O)c1cnc(NCc2cc(Cl)ccc2Cl)nc1NC1CCCC1 ?
OUT: 0

IN: Test system WNK1; read-out %Inh; what value for Cc1cc2cn[nH]c2cc1-c1cccc2c(N)c(C(N)=O)nnc12 ?
OUT: 21

IN: Test system WNK1; read-out %Inh; what value for Cc1cc(C(=O)Nc2ccc(Oc3ccc4nc(NC(=O)C5CC5)cn4n3)cc2)nn1-c1ccccc1 ?
OUT: 0

###

tested on: CAMK2D; conditions: concentration: 1 μM,replicates: in singlicate; n = 1
Reported %Inh values are given for each entry in this list.
Expressed in %, but write only the number.

// worked examples, %Inh included
NC(=O)c1cc(-c2ccccc2)cc2c(C3CCNCC3)c[nH]c12 [GSK301362] | 23
C[C@H]1Oc2cc(cnc2N)-c2c(nn(C)c2C#N)CN(C)C(=O)c2ccc(F)cc21 | 0
Cl.Cl.NC[C@H](CC1CCCCC1)NC(=O)c1cc(Br)c(-c2ccnc3[nH]ccc23)s1 [GSK1581427] | 4
CC(C)Nc1cc(-c2ccc3c(N)n[nH]c3c2)nc(N)n1 [GSK2221681] | 0

IN: Test system CAMK2D; read-out %Inh; what value for Cc1ccc2c(-c3ccncc3)c(-c3ccc(F)cc3)nn2c1.Cl [GW461484] ?
OUT: 0

###

test system: MEK6; construct: gene MAP2K6; conditions: concentration: 1 μM,replicates: in singlicate; n = 1
Reported %Inh values are given for each entry in this list.
Expressed in %, but write only the number.

Cc1cc2cn[nH]c2cc1-c1cccc2c(N)c(C(N)=O)nnc12 | 4
O=C(NCCNc1ccnc(NCc2ccc(F)cc2)n1)c1cc2ccccc2s1 | 0
CC(C)N1C(=O)Cc2cc(Nc3ncc(C(F)(F)F)c(NCc4cccc(S(C)(=O)=O)c4)n3)ccc21 | 16
NC(=O)c1cc(-c2ccccc2)cc2c(C3CCNCC3)c[nH]c12 | 0
C[C@@H]1CCN(C(=O)CC#N)C[C@@H]1N(C)c1ncnc2[nH]ccc12 | 0
Cc1occc1-c1nc(N)c(OC[C@@H](N)Cc2c[nH]c3ccccc23)cc1-c1cc2c(C)n[nH]c2cn1 | 0

IN: Quick one: %Inh of CN(C)CCOc1ccc(-c2cc(-c3c[nH]nc3-c3ccccn3)ccn2)cc1 ?
OUT: 0
